Entries annotated with measured IC50
- system-name: KRAS G13C (Homo sapiens (Human), UniProt P01116+P62937, G13C)
- Sequence (P01116 other isoform, or with tags, fused parts or gaps G13C, one chain of several): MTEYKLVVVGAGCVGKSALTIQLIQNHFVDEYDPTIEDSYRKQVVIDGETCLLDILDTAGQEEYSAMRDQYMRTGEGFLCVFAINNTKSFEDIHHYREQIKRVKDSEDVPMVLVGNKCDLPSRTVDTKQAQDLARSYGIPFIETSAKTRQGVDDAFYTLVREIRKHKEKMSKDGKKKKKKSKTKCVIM
- experimental-protocol: Ras-Raf disruption/FRET/MOA assay (BRAF RBD, Cyclophilin A)
- Type: biochemical
- experimental-conditions: read-out: KRAS G13C FRET IC50

>  <smi>
CCn1c(-c2cccnc2[C@H](C)OC)c2c3cc(ccc31)-c1csc(n1)C[C@H](NC(=O)[C@H](C(C)C)N(C)C(=O)N1CC[C@@H]3CN(C)C[C@@H]31)C(=O)N1CCC[C@H](N1)C(=O)OCC(C)(C)C2

>  <IC50>
100 to 1000 nM

$$$$
>  <smi>
CCn1c(-c2cccnc2[C@H](C)OC)c2c3cc(ccc31)-c1csc(n1)C[C@H](NC(=O)[C@H](C(C)C)N(C)C(=O)N(C)[C@@H]1CCN(C)C1)C(=O)N1CCC[C@H](N1)C(=O)OCC(C)(C)C2

>  <IC50>
100 to 1000 nM

$$$$
>  <smi>
CCn1c(-c2cccnc2[C@H](C)OC)c2c3cc(ccc31)-c1cc(O)cc(c1)C[C@H](NC(=O)[C@H](C(C)C)N(C)C(=O)[C@]1(F)CCN(C(=O)OC)C1)C(=O)N1CCC[C@H](N1)C(=O)OCC(C)(C)C2

>  <IC50>
10 to 100 nM

$$$$
>  <smi>
CO[C@@H](C)c1ncccc1-c1c2c3cc(ccc3n1CC(F)(F)F)-c1csc(n1)C[C@H](NC(=O)[C@H](C(C)C)N(C)C(=O)N1CC(N(C)C)C1)C(=O)N1CCC[C@H](N1)C(=O)OCC(C)(C)C2

>  <IC50>
100 to 1000 nM

$$$$

---

- system-name: KRAS G12V (Homo sapiens (Human), UniProt P01116+P62937, G12V)
- Sequence (P01116 other isoform, or with tags, fused parts or gaps G12V): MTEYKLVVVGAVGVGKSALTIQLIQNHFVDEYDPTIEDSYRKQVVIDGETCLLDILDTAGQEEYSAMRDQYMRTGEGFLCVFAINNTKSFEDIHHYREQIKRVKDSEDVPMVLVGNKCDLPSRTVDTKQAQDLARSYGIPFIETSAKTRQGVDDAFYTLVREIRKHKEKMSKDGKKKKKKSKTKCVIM
- Sequence (P62937 whole entry): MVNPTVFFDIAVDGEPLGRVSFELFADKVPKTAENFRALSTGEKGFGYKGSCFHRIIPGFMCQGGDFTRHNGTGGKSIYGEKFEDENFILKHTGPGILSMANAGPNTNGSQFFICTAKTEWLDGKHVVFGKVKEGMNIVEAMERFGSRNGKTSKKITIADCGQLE
- experimental-protocol: Ras-Raf disruption/FRET/MOA assay (BRAF RBD, Cyclophilin A)
- Type: biochemical
- experimental-conditions: read-out: KRAS G12V FRET IC50
measured-endpoint: IC50

>  <molecule>
CCn1c(-c2cccnc2[C@H](C)OC)c2c3cc(ccc31)-c1csc(n1)C[C@H](NC(=O)[C@H](C(C)C)N1CCC3(CCN(C)C3)C1=O)C(=O)N1CCC[C@H](N1)C(=O)OCC(C)(C)C2 (stereo partly shown)

>  <system-name>
KRAS G12V (Homo sapiens (Human), UniProt P01116+P62937, G12V)

>  <measurement>
> 10000 nM

$$$$
>  <molecule>
CCn1c(-c2cccnc2[C@H](C)OC)c2c3cc(ccc31)-c1csc(n1)C[C@H](NC(=O)[C@H](C(C)C)N(C)C(=O)N(C)N(C)C)C(=O)N1CCC[C@H](N1)C(=O)OCC(C)(C)C2

>  <system-name>
KRAS G12V (Homo sapiens (Human), UniProt P01116+P62937, G12V)

>  <measurement>
10 to 100 nM

$$$$
>  <molecule>
CCn1c(-c2cccnc2[C@H](C)OC)c2c3cc(ccc31)-c1csc(n1)C[C@H](NC(=O)[C@H](C(C)C)N(C)C(=O)[C@@H]1OCC[C@@H]1c1ccccc1)C(=O)N1CCC[C@H](N1)C(=O)OCC(C)(C)C2

>  <system-name>
KRAS G12V (Homo sapiens (Human), UniProt P01116+P62937, G12V)

>  <measurement>
100 to 1000 nM

$$$$
>  <molecule>
CCn1c(-c2cccnc2[C@H](C)OC)c2c3cc(ccc31)-c1cc(O)cc(c1)C[C@H](NC(=O)[C@H](C(C)C)N(C)C(=O)C1(C(F)F)CCCO1)C(=O)N1CCC[C@H](N1)C(=O)OCC(C)(C)C2 (stereo partly shown)

>  <system-name>
KRAS G12V (Homo sapiens (Human), UniProt P01116+P62937, G12V)

>  <measurement>
100 to 1000 nM

$$$$

---

- system-name: KRAS WT (Homo sapiens (Human), UniProt P01116+P62937)
- Sequence (P01116 other isoform, or with tags, fused parts or gaps, one chain of several): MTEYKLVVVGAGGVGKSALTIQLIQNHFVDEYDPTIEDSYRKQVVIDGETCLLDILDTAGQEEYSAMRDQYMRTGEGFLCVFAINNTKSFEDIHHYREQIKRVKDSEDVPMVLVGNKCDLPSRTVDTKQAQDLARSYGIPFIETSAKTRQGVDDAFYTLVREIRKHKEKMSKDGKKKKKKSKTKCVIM
- experimental-protocol: Ras-Raf disruption/FRET/MOA assay (BRAF RBD, Cyclophilin A)
- Type: biochemical
- experimental-conditions: read-out: KRAS WT FRET data IC50
- Method: Compound is present in plate wells as a 10-point 3-fold dilution series starting at a final concentration of 30 μM. After incubation at 25° C. for 3 hours, a mixture of Anti-His Eu—W1024 and anti-GST allophycocyanin is then added to assay sample wells at final concentrations of 10 nM and 50 nM, respectively, and the reaction incubated for an additional 1.5 hours. […]
pIC50: −log10 of the molar value.

>  <smi>
CCn1c(-c2cccnc2[C@H](C)OC)c2c3cc(ccc31)-c1csc(n1)C[C@H](NC(=O)[C@H](C(C)C)N(C)C(=O)N1CC(N)C1)C(=O)N1CCC[C@H](N1)C(=O)OCC(C)(C)C2

>  <system-name>
KRAS WT (Homo sapiens (Human), UniProt P01116+P62937)

>  <pIC50>
6.00 to 7.00

$$$$
>  <smi>
CCn1c(-c2cccnc2[C@H](C)OC)c2c3cc(ccc31)-c1cc(O)cc(c1)C[C@H](NC(=O)[C@H](C(C)C)N(C)C(=O)[C@H]1CCN(C(=O)[C@]3(C)CCCN3)C1)C(=O)N1CCC[C@H](N1)C(=O)OCC(C)(C)C2

>  <system-name>
KRAS WT (Homo sapiens (Human), UniProt P01116+P62937)

>  <pIC50>
7.00 to 8.00

$$$$
>  <smi>
CCn1c(-c2cccnc2[C@H](C)OC)c2c3cc(ccc31)-c1cc(O)cc(c1)C[C@H](NC(=O)[C@H](C(C)C)N(C)C(=O)[C@H]1CCN(C(=O)[C@@H](C)N(C)C)C1)C(=O)N1CCC[C@H](N1)C(=O)OCC(C)(C)C2

>  <system-name>
KRAS WT (Homo sapiens (Human), UniProt P01116+P62937)

>  <pIC50>
7.00 to 8.00

$$$$
>  <smi>
CCn1c(-c2cccnc2[C@H](C)OC)c2c3cc(ccc31)-c1csc(n1)C[C@H](NC(=O)[C@H](C(C)C)N(C)C(=O)N1CC[C@H]1CN)C(=O)N1CCC[C@H](N1)C(=O)OCC(C)(C)C2

>  <system-name>
KRAS WT (Homo sapiens (Human), UniProt P01116+P62937)

>  <pIC50>
6.00 to 7.00

$$$$

---

- system-name: KRAS G12V (Homo sapiens (Human), UniProt P01116+P62937, G12V)
- experimental-protocol: Ras-Raf disruption/FRET/MOA assay, KRAS G12V
- Type: biochemical
measured-endpoint: IC50

>  <molecule>
CCn1c(-c2cccnc2[C@H](C)OC)c2c3cc(ccc31)-c1cc(O)cc(c1)C[C@H](NC(=O)[C@@H](C(C)C)N(C)C(=O)[C@@]1(C)CCCN1C(=O)[C@@H]1CN1)C(=O)N1CCC[C@H](N1)C(=O)OCC(C)(C)C2 [Example 242]

>  <measurement>
1000 to 10000 nM

$$$$
>  <molecule>
CCn1c(-c2cccnc2[C@H](C)OC)c2c3cc(ccc31)-c1cc(O)cc(c1)C[C@H](NC(=O)[C@@H](C(C)C)N(C)C(=O)[C@@]1(C)CCCN1C(=O)[C@H]1CN1)C(=O)N1CCC[C@H](N1)C(=O)OCC(C)(C)C2 [Example 240]

>  <measurement>
1000 to 10000 nM

$$$$
>  <molecule>
CCn1c(-c2cnccc2COC)c2c3cc(ccc31)-c1cc(O)cc(c1)C[C@H](NC(=O)[C@H](C(C)C)N(C)C(=O)CN(C)C(=O)[C@H]1N[C@H]1C1CC1)C(=O)N1CCC[C@H](N1)C(=O)OCC(C)(C)C2 [Example 104]

>  <measurement>
100 to 1000 nM

$$$$
>  <molecule>
CCn1c(-c2cnccc2COC)c2c3cc(ccc31)-c1cc(O)cc(c1)C[C@H](NC(=O)[C@H](C(C)C)N(C)C(=O)CN(C)C(=O)[C@@H]1N[C@H]1c1ccc(OC)cc1)C(=O)N1CCC[C@H](N1)C(=O)OCC(C)(C)C2 [Example 96]

>  <measurement>
10 to 100 nM

$$$$
>  <molecule>
CCn1c(-c2cccnc2[C@H](C)OC)c2c3cc(ccc31)-c1cc(O)cc(c1)C[C@H](NC(=O)[C@H](C1CCCC1)N(C)C(=O)[C@@H](C)N(C)C(=O)[C@@H]1N[C@@H]1C1CC1)C(=O)N1CCC[C@H](N1)C(=O)OCC(C)(C)C2 [Example 327]

>  <measurement>
1000 to 10000 nM

$$$$
>  <molecule>
CCn1c(-c2cccnc2[C@H](C)OC)c2c3cc(ccc31)-c1cc(O)cc(c1)C[C@H](NC(=O)[C@H](C(C)C)N(C)C(=O)[C@]13C[C@H]1CCN3C(=O)[C@H]1CN1)C(=O)N1CCC[C@H](N1)C(=O)OCC(C)(C)C2 [Example 244]

>  <measurement>
100 to 1000 nM

$$$$
>  <molecule>
CCn1c(-c2cccnc2[C@H](C)OC)c2c3cc(ccc31)-c1cc(O)cc(c1)C[C@H](NC(=O)[C@H](C(C)C)N(C)C(=O)[C@]1(C)CCCN1C(=O)[C@H]1CN1)C(=O)N1CCC[C@H](N1)C(=O)OCC(C)(C)C2 [Example 243]

>  <measurement>
100 to 1000 nM

$$$$
>  <molecule>
CCn1c(-c2cnccc2COC)c2c3cc(ccc31)-c1cc(O)cc(c1)C[C@H](NC(=O)[C@H](C(C)C)N(C)C(=O)CN(C)C(=O)[C@@H]1N[C@@H]1C1CC1)C(=O)N1CCC[C@H](N1)C(=O)OCC(C)(C)C2 [Example 103]

>  <measurement>
10 to 100 nM

$$$$
>  <molecule>
CCn1c(-c2cccnc2[C@H](C)OC)c2c3cc(ccc31)-c1cc(O)cc(c1)C[C@H](NC(=O)[C@H](C(C)C)N(C)C(=O)[C@@H]1CO[C@H](C)CN1C(=O)[C@@H]1CN1)C(=O)N1CCC[C@H](N1)C(=O)OCC(C)(C)C2 [Example 249]

>  <measurement>
10 to 100 nM

$$$$
>  <molecule>
CCn1c(-c2cccnc2COC)c2c3cc(ccc31)-c1cc(O)cc(c1)C[C@H](NC(=O)[C@H](C(C)C)N(C)C(=O)CCNC(=O)NCCCl)C(=O)N1CCC[C@H](N1)C(=O)OCC(C)(C)C2 [Example 25]

>  <measurement>
1000 to 10000 nM

$$$$
>  <molecule>
CCn1c(-c2cnccc2COC)c2c3cc(ccc31)-c1cc(O)cc(c1)C[C@H](NC(=O)[C@H](C(C)C)N(C)C(=O)CN(C)C(=O)[C@@H]1N[C@@H]1C)C(=O)N1CCC[C@H](N1)C(=O)OCC(C)(C)C2 [Example 105]

>  <measurement>
100 to 1000 nM

$$$$
>  <molecule>
CCn1c(-c2cccnc2[C@H](C)OC)c2c3cc(ccc31)-c1cc(O)cc(c1)C[C@H](NC(=O)[C@H](C(C)C)N(C)C(=O)[C@@]1(C)CCCN1C(=O)[C@@H]1CN1)C(=O)N1CCC[C@H](N1)C(=O)OCC(C)(C)C2 [Example 241]

>  <measurement>
10 to 100 nM

$$$$
>  <molecule>
CCn1c(-c2cnccc2COC)c2c3cc(ccc31)-c1cc(O)cc(c1)C[C@H](NC(=O)[C@H](C(C)C)N(C)C(=O)CN(C)C(=O)[C@H]1N[C@H]1C(=O)OC)C(=O)N1CCC[C@H](N1)C(=O)OCC(C)(C)C2 [Example 51]

>  <measurement>
100 to 1000 nM

$$$$
>  <molecule>
CCn1c(-c2cnccc2COC)c2c3cc(ccc31)-c1cc(O)cc(c1)C[C@H](NC(=O)[C@H](C(C)C)N(C)C(=O)CN(C)C(=O)[C@H]1N[C@H]1c1ccc(OC)cc1)C(=O)N1CCC[C@H](N1)C(=O)OCC(C)(C)C2 [Example 93]

>  <measurement>
10 to 100 nM

$$$$
>  <molecule>
CCn1c(-c2cnccc2COC)c2c3cc(ccc31)-c1cc(O)cc(c1)C[C@H](NC(=O)[C@H](C(C)C)N(C)C(=O)CN(C)C(=O)[C@H]1N[C@@H]1c1ccc(OC)cc1)C(=O)N1CCC[C@H](N1)C(=O)OCC(C)(C)C2 [Example 97]

>  <measurement>
10 to 100 nM

$$$$
